- study target: Human TRPV3 (Homo sapiens)
- Construct: expressed in transfected cells; host or cells: CHO cells (selected with G-418)
- Sequence (Q8NET8 whole entry): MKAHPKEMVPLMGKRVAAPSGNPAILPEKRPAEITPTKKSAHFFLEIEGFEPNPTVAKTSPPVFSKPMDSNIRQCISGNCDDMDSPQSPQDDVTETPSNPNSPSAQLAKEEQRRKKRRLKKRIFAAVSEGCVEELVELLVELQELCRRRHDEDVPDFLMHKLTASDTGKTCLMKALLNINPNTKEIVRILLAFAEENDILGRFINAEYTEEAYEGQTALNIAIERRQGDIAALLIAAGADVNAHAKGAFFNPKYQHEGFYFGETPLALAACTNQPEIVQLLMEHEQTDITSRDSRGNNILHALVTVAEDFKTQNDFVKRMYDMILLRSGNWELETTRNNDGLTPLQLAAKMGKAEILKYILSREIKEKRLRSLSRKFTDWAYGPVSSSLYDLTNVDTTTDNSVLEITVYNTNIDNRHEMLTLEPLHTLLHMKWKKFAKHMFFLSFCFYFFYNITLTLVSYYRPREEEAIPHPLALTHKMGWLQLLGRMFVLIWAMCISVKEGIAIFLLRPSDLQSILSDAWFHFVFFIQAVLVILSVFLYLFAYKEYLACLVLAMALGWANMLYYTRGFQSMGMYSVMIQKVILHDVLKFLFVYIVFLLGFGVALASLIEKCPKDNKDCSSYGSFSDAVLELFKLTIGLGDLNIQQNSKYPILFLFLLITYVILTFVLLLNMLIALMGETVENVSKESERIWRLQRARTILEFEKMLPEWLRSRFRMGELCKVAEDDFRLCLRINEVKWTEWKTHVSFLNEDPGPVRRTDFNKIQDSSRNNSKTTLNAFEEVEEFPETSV
- test name: 45Calcium uptake assay: inhibition of 2-APB induced cellular uptake of radioactive calcium
- Assay type: cell-based
- cond: 1 μM test compound; human TRPV3 expressing CHO cells; 2-APB 500 μM; read-out: Percentage Inhibition (1 μM)
measured metric: inhibition at 1 µM (%)

molecule | unit info | numeric result
COc1cccc(/C=C/c2nc3ccccc3n2-c2ccc(C(F)(F)F)cc2)c1OC1CCCC1 [Example 35] | % | 54.3
N#Cc1ccc(-n2c(/C=C/c3cccc(OC(F)F)c3OC3CCCC3)nc3cc(Cl)cnc32)nc1 [Example 103] | % | 98.3
COc1cccc(/C=C/c2nc3cccnc3n2-c2ccc(C#N)cn2)c1OC1CCCC1 [Example 91] | % | 95.3
CCCCCOc1c(/C=C/c2nc3cc(F)c(F)cc3n2-c2ccc(C#N)cn2)cccc1OC [Example 65] | % | 94.9
CCCCOc1c(/C=C/c2nc3cccnc3n2-c2ccc(C#N)cn2)cccc1OC [Example 86] | % | 92.6

A: CCCCOc1c(/C=C/c2nc3cc(F)c(F)cc3n2-c2ccc(C#N)cn2)cccc1OC [Example 64]
B: COc1cccc(/C=C/c2nc3ccccc3n2-c2ncc(Cl)cc2Cl)c1OCc1ccccc1F [Example 6]
C: COc1cccc(/C=C/c2nc3ccccc3n2-c2ccccn2)c1OC1CCCC1 [Example 2]
Ask: Arrange items by their inhibition at 1 µM values in increasing order. Please respond with the labels ordered as the question requires.
Reply: C, B, A
(C: 3.64%, B: 66.8%, A: 96.4%)
